Property: concentration at 0.5 h; scope: individual molecules
method: Mouse pharmacokinetic study in plasma and liver after oral administration
Assay type: in vivo, male C57BL/6J mice
cond: male, C57BL/6J, plasma, 0.5 h after oral (intragastric) administration, read-out: Plasma drug concentration
I only need the number, in nM, no unit after it.

What concentration at 0.5 h value was documented for this molecule, C[C@H](NC(=O)c1cc(-c2ccccc2Cl)on1)C(=O)N[C@@H](CC(=O)O)C(=O)COc1c(F)c(F)cc(F)c1F [Example 1] ?
2520

Further cases:
Bench note: what concentration at 0.5 h did C[C@H](NC(=O)C(=O)Nc1ccccc1C(C)(C)C)C(=O)N[C@@H](CC(=O)O)C(=O)COc1c(F)c(F)cc(F)c1F [IDN-6556, reference compound] show?
435

----------
Measured concentration at 6 h, listed per entry for reference.
method: Mouse pharmacokinetic study in plasma and liver after oral administration
Assay type: in vivo, male C57BL/6J mice
cond: male, C57BL/6J, plasma, 6 h after oral (intragastric) administration, read-out: Plasma drug concentration
Give the quantity in nM, number only.

Any idea what its concentration at 6 h is? The compound is "C[C@H](NC(=O)c1cc(-c2ccccc2Cl)on1)C(=O)N[C@@H](CC(=O)O)C(=O)COc1c(F)c(F)cc(F)c1F"
12.8

Let's switch to this compound now.
So what does the record say about concentration at 6 h for C[C@H](NC(=O)C(=O)Nc1ccccc1C(C)(C)C)C(=O)N[C@@H](CC(=O)O)C(=O)COc1c(F)c(F)cc(F)c1F [IDN-6556, reference compound] ?
5.79
